These entries and their values trace back to paper PMC8058163.

Target: MATE1 (Homo sapiens, UniProt Q96FL8)
Sequence (Q96FL8 1-570): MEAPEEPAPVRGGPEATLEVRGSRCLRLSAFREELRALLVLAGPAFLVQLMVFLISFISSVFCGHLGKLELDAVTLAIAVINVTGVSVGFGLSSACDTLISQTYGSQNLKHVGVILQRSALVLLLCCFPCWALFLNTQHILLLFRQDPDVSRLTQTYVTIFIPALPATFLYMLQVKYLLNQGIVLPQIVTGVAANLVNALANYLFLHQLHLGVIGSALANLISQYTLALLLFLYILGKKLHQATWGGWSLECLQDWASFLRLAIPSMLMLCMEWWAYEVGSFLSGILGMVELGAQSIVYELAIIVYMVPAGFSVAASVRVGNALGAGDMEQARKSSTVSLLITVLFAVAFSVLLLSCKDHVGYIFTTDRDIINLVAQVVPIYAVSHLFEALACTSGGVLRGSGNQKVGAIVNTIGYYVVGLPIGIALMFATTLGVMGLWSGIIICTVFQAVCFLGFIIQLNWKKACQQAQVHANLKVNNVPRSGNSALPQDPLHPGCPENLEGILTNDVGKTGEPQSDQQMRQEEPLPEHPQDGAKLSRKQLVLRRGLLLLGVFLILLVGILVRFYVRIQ
Experiment: Transporter inhibition assay, MATE1
Conditions: MATE1; isolated alkaloids; mean [95% CI], three technical replicates
pIC50: −log10 of the molar value.
endpoint-name: pIC50

COc1ccc2c(c1OC)C(=O)O[C@@H]2[C@H]1c2cc3c(cc2CCN1C)OCO3 [(−)-β-Hydrastine, (1R,9S)-(−)-β-Hydrastine] : 3.96

###

Experiment: clinical
Conditions: both, human, in vivo, po
endpoint-name: Cmax (nM)

Cc1ncc2n1-c1ccc(Cl)cc1C(c1ccccc1F)=NC2 [Midazolam, midazolam] : 26
CN(C)C(=N)N=C(N)N [Metformin, metformin] : 750
CC(C)c1nc(N(C)S(C)(=O)=O)nc(-c2ccc(F)cc2)c1/C=C/[C@@H](O)C[C@@H](O)CC(=O)O [Rosuvastatin acid, rosuvastatin] : 7.4

###

Target: OATP1B3 (Homo sapiens)
Sequence (Q9NPD5 whole entry): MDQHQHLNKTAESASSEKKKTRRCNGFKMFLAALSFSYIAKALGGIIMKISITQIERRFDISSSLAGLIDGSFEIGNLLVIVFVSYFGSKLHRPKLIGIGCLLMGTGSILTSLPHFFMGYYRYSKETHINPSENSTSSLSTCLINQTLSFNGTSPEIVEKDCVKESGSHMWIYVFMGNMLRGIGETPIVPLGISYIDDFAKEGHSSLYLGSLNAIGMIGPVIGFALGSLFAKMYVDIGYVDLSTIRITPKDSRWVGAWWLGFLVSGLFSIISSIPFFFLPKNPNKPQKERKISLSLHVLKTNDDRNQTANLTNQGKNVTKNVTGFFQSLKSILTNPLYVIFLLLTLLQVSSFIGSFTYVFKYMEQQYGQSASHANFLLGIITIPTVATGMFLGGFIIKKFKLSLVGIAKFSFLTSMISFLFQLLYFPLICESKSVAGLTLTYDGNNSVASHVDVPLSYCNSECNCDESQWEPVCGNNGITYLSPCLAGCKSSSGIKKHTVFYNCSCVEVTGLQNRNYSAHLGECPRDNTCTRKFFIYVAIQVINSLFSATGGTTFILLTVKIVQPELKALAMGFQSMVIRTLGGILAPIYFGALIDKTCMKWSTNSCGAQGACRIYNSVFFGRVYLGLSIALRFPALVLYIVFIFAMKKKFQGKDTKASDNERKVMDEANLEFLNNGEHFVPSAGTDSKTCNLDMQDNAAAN
Assay: Transporter inhibition assay, OATP1B3
Format: cell-based
Conditions: cell line (HEK293 or MDCKII) stably expressing OATP1B3
endpoint-name: inhibition at 100 μM

COc1ccc2cc3[n+](cc2c1OC)CCc1cc2c(cc1-3)OCO2 [Berberine, berberine chloride] : < 20%
CN1CCc2cc3c(cc2C1O)OCO3 (centres unmarked) [Hydrastinine, hydrastinine chloride monohydrate] : < 20%

###

Target: OCT2 (Homo sapiens, UniProt O15244)
Sequence (O15244 whole entry): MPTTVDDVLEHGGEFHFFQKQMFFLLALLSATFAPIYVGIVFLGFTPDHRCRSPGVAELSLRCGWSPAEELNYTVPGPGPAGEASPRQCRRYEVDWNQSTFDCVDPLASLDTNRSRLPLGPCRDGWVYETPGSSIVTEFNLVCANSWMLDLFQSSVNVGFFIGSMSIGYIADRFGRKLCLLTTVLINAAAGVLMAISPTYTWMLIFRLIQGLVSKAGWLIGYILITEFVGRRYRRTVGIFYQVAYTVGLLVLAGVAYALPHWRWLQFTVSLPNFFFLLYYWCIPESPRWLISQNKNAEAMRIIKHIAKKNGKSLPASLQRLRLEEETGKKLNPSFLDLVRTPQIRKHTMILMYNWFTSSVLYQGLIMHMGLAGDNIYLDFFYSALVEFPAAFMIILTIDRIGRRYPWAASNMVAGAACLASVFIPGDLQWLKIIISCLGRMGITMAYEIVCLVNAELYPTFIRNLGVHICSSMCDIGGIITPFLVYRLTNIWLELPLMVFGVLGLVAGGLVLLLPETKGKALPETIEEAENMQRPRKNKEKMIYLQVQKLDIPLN
Assay: Transporter inhibition assay, OCT2
Conditions: OCT2; isolated alkaloids; mean [95% CI], three technical replicates
pIC50: −log10 of the molar value.
endpoint-name: pIC50

COc1ccc2c(c1OC)C(=O)O[C@@H]2[C@H]1c2cc3c(cc2CCN1C)OCO3 [(−)-β-Hydrastine, (1R,9S)-(−)-β-Hydrastine] : 4.05

###

Molecular target: OAT3 (Homo sapiens)
Sequence (Q8TCC7 whole entry): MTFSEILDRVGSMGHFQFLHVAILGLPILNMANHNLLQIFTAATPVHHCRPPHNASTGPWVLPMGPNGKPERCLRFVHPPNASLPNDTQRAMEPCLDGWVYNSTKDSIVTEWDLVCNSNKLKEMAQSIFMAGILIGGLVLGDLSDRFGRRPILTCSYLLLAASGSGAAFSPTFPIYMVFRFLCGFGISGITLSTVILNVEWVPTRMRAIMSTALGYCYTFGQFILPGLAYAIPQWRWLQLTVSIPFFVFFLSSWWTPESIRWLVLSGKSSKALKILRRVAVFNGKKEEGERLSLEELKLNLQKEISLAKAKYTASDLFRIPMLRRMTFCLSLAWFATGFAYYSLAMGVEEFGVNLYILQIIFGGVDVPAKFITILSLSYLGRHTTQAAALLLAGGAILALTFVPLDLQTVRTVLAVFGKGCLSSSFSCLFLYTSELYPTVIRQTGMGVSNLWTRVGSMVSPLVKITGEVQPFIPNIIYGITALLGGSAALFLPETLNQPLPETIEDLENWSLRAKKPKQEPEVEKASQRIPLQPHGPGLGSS
Assay: Transporter inhibition assay, OAT3
Details: cell line (HEK293 or MDCKII) stably expressing OAT3
endpoint-name: inhibition at 100 μM

CN1CCc2cc3c(cc2C1O)OCO3 (stereo not shown) [Hydrastinine, hydrastinine chloride monohydrate] : < 20%

###

Target: UniProtKB O15438
Sequence (O15438 whole entry): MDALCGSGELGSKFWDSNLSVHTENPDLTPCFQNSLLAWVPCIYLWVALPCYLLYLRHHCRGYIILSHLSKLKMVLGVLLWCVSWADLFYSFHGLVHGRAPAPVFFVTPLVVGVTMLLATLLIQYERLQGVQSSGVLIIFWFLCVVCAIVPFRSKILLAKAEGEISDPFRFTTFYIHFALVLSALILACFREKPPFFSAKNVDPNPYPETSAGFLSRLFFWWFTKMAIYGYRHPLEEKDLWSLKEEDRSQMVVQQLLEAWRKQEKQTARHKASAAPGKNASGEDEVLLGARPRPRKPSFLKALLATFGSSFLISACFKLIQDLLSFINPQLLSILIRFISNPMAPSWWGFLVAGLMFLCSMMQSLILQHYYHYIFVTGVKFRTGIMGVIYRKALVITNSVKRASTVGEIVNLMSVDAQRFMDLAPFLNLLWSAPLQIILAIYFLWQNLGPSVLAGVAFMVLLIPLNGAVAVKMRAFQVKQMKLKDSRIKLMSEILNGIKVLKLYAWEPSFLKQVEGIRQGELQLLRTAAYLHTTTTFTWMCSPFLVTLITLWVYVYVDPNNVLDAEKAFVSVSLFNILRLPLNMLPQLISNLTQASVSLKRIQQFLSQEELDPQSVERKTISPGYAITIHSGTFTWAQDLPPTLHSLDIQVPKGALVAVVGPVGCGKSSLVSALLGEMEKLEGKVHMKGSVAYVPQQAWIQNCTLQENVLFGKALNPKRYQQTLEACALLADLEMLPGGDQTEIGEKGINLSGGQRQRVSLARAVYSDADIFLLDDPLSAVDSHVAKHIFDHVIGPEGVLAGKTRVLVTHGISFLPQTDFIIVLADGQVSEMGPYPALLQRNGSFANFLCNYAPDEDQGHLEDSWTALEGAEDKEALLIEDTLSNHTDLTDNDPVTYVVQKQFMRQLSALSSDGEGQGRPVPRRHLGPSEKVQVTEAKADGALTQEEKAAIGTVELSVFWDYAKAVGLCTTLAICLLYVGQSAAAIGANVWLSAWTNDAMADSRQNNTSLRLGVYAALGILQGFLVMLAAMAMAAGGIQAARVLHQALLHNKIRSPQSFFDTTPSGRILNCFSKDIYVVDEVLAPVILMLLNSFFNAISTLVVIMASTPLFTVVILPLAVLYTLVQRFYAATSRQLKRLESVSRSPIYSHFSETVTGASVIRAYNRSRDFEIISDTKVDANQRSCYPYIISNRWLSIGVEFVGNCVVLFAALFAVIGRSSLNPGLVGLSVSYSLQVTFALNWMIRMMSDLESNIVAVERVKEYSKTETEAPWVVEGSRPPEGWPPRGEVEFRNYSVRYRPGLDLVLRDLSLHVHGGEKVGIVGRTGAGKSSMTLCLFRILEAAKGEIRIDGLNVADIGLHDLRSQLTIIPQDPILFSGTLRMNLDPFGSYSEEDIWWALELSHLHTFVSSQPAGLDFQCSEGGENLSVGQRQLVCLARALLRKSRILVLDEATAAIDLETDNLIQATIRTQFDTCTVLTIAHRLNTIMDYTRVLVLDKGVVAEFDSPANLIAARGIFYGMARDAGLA
Assay: Transporter inhibition assay, MRP3
Recorded inhibition at 100 μM by entry
endpoint-name: inhibition at 100 μM

COc1ccc2cc3[n+](cc2c1OC)CCc1cc2c(cc1-3)OCO2 [Berberine, berberine chloride] : < 20%
CN1CCc2cc3c(cc2C1O)OCO3 (centres unmarked) [Hydrastinine, hydrastinine chloride monohydrate] : < 20%
